Settings: in n-butanol, 273.15 K
READOUT LABEL: solubility (mole fraction)

> print(dat)
                  chemical.structure               readout.label  value.observed
1  Oc1ccc([C@@H]2COc3cc(O)ccc3C2)cc1  solubility (mole fraction)          0.0242

----------
Conditions: in isopentanol, 313.15 K
READOUT LABEL: solubility (mole fraction)

> print(dat)
                  chemical.structure               readout.label  value.observed
1  Oc1ccc([C@@H]2COc3cc(O)ccc3C2)cc1  solubility (mole fraction)          0.0639

----------
Details: in isopropanol, 318.15 K
READOUT LABEL: solubility (mole fraction)

> print(dat)
                  chemical.structure  value.observed
1  Oc1ccc([C@@H]2COc3cc(O)ccc3C2)cc1           0.112
